system: SN12C renal; assay: NCI-60 one-dose screen, 48 h; settings: 10 µM unless noted
Compounds without any hit were thinned out: in the full panel of roughly 83,000, 20% have a hit. Activity calls are given as the source filed them. Rule for the calls: active = growth percent below 10; inactive = the rest.
One label from this list, please: YES = active, NO = inactive

Problem: Fill in: this test's call for Cc1cc2c3ccc(C)[n+](C)c3ccc2n1C is ___
Solution: NO

Problem: What classification did c1ccc2[nH]c(Cc3nc4ccccc4[nH]3)nc2c1 end up with in this test?
Solution: NO

Problem: Dear all, I need the recorded test outcome for CCN(CC)CCN1CNC(=S)NC1 , thank you.
Solution: NO

Problem: What classification did CC(=O)C1C(=O)C(=O)N(c2cccc([N+](=O)[O-])c2)C1=O (stereo unspecified) end up with in this test?
Solution: NO

Problem: What was the test verdict on CC(=O)Nc1ncc(S(=O)(=O)c2ccc([N+](=O)[O-])cc2)s1 ?
Solution: NO

Problem: Look up the recorded call for COc1ccc(C2CC(c3ccccc3)=Nc3ccccc3S2)cc1 (stereo unspecified) in this test.
Solution: NO

Problem: Could you check what this test reported for COC1OC(C(COC(C)=O)OC(C)=O)C(OC(C)=O)C(OC(C)=O)C1OC(C)=O (stereo unspecified) ?
Solution: NO

Problem: Called result for NC(CCl)=NCC12CC3CC(CC(C3)C1)C2
Solution: YES

Problem: # fetch the recorded call for Nc1ccc(F)c(Cl)c1F here
Solution: NO

Problem: Could you please tell me the result logged for CCOC(=O)C(C#N)=C1CCN(C)CC1 in this assay?
Solution: NO

Problem: Hi, do you know how CC1(c2ccccc2)CO1 (stereo unspecified) came out in this test?
Solution: NO

Problem: Assay outcome for COc1cccc(N=CNc2cccc(OC)c2)c1 : what was it?
Solution: NO

Problem: Tell me the recorded outcome of this test for O=C(c1cccc(C(=O)c2ccc3c4c(cccc24)C(=O)N(c2ccccc2)C3=O)c1)c1ccc2c3c(cccc13)C(=O)N(c1ccccc1)C2=O .
Solution: NO

Problem: Hi, do you know how NS(=O)(=O)c1cc(=O)[nH]c(=O)[nH]1 came out in this test?
Solution: NO

Problem: Dear colleague, could you share the recorded outcome for CC1CC2C3CCC4=CC(=O)CCC4(C)C3CCC2(C)C1(O)C(=O)CO (stereo unspecified) when you have a moment?
Solution: NO

Problem: GET /call?item= CC(=O)NC(CCC(=O)c1ccccc1)C(=O)O (stereo unspecified) returns the recorded outcome of this test.
Solution: NO

Problem: Hi, sorry to bother you, what did the test record for CCNC(=O)Oc1ccc[nH]c1=O ?
Solution: NO

Problem: Tell me the recorded outcome of this test for CN(C)c1ccc2nc3ccc(=[N+](C)C)cc-3oc2c1 .
Solution: YES

Problem: // outcome(item) with item = COc1ccc(-c2csc(NC(=O)Nc3nc(-c4ccc(OC)cc4)cs3)n2)cc1
Solution: NO

Problem: Look up the recorded call for CCOP(=O)(NC(c1ccccc1)c1ccccc1)OCC in this test.
Solution: NO

Problem: GET /call?item= Cc1c(Cl)cccc1NC(=S)NC(=O)c1ccccc1 returns the recorded outcome of this test.
Solution: NO

---

Could you please report measured growth for the items listed next?
system: UACC-62 melanoma; experiment: NCI-60 one-dose screen, 48 h (100 = growth as untreated, 0 = no growth, -100 = all killed); details: 10 µM unless noted
Compounds without any hit were thinned out: in the full panel of roughly 83,000, 20% have a hit.
Please respond with the number in % and leave the unit unwritten.

Lab book: growth of OCCOc1ccc(-c2cc(-c3ccccn3)nc(-c3ccccn3)c2)cc1 noted as -44.8

Short answer for ClCC(Cl)[C@@H]1CC2C=CC1C2 (some centres not stated) : growth was 98.7

# compound CCOC(=O)c1ccc(NC(=O)Nc2nccs2)cc1 ; its growth = 31.8

Item: NC(CCl)=NCC12CC3CC(CC(C3)C1)C2 | growth: 32.7

// recorded growth for Cc1ccc(S(=O)(=O)NC(=O)NCCSSCCNC(=O)NS(=O)(=O)c2ccc(C)cc2)cc1 : 101

Entry Nc1nnc2cc(F)ccc2n1 — recorded growth = 105

What the record says about NC(=S)c1c(N)n(C2OC(CO)C(O)C2O)c2ncnc(N)c12 (configuration not stated) : growth is -73.7

Entry CN(C)c1ncnc2c1cnn2C , growth reported as 92.9

growth recorded for this compound, O=C1C=C(c2ccccc2)C(O)(c2ccccc2)C1 (configuration not stated) , is 92.3

Consider CCCCn1cnc2c(=O)[nH]cnc21 . Its measured growth is 95.7

Given item O=C(O)c1ccc(OCc2ccccc2)cc1 , the value recorded as its growth is 95.6

Form: compound = Cc1cc(Cl)cc(Cc2cc(Cl)cc(C)c2O)c1O ; growth = 16.1

For record CCOS(=O)(=O)c1ccc([N+](=O)[O-])cc1 the listed growth is 101

Entry under test: O=C(Nc1c(Cl)cc(Cl)cc1Cl)ON=C1CCCCC1 . Its growth was 98.7

Reported growth for CC(C)N(CCCC#N)C(C)C was 95.2

Please fill in: growth reported for Cc1nc(O)cc(=O)[nH]1 = 113

get_value(item= O=C(Nc1ccc([N+](=O)[O-])cc1)C(=O)Nc1ccc([N+](=O)[O-])cc1 , readout=growth) returns 97

---

system: SK-MEL-2 melanoma; assay: NCI-60 one-dose screen, 48 h; conditions: 10 µM unless noted
Compounds without any hit were thinned out: in the full panel of roughly 83,000, 20% have a hit. Active and inactive are the calls of the source. The calls were made as follows: active = growth percent below 10; inactive = the rest.
Please answer using one outcome listed in active, inactive

Problem: Record lookup: outcome of this test for Cc1ccc(NCN2C(=O)c3ccccc3C2=O)c(C)n1 ?
Solution: inactive

Problem: Would you mind telling me which call this test gave Nc1cc(F)ccc1[N+](=O)[O-] ?
Solution: inactive

Problem: Dear all, I need the recorded test outcome for CCOC(=O)c1cc(Cl)c(O)c(Cl)c1 , thank you.
Solution: inactive

Problem: Can you look up the reported call for CCCCCC/C=C\CCCCCCCCCc1cc(O)cc(OC)c1O for me?
Solution: active

Problem: Look up the recorded call for Oc1cc2ccccc2c(-c2c(O)c(O)cc3ccccc23)c1O in this test.
Solution: active

Problem: Which outcome was assigned to Nc1ncc([N+](=O)[O-])cn1 in this test?
Solution: inactive

Problem: // return assay outcome for O=C(O)c1ccc(OCc2ccccc2)cc1
Solution: inactive

Problem: Please indicate how the test categorized CC(C)C1CCC(C)C(O)C1 (stereo not drawn) .
Solution: inactive

Problem: For C=CCc1cc(OC)c(O)c(OC)c1 , what call appears in the results of this test?
Solution: inactive

Problem: Name the outcome recorded for CC(O)C(F)(F)C(F)(F)C(F)(F)F (stereo not drawn) in the assay.
Solution: inactive

Problem: Could you check what this test reported for Cc1[nH]n(-c2ccccc2)c(=O)c1C=NC(=S)C(N)=S ?
Solution: inactive

Problem: # outcome recorded in this test, key = CC1(C)C2CCC1(C)C1(C2)OCCS1 (stereo not drawn)
Solution: inactive

Problem: For this molecule, state the assay outcome: CCCc1cccc(CCC)c1NC(=O)Nc1cc(Cl)cc(Cl)c1
Solution: inactive

---

test system: HCC-2998 colon; experiment: NCI-60 one-dose screen, 48 h (100 = growth as untreated, 0 = no growth, -100 = all killed); conditions: 10 µM unless noted
This is part of a sample that, as a whole, favours compounds with a hit. Of some 83,000 tested, about 20% had one in any assay.
Please go through the items and note down their growth.
Response body: numeric value in %, unit text excluded.

Value of measured growth for the entry CCOC(=O)CNC(=O)Sc1ccc(C(C)(C)C)cc1 : 110

# molecule C/C(O)=C(/C=N\C(=S)Nc1ccc(S(=O)(=O)Nc2nccs2)cc1)C(=O)Nc1ccccc1C ; its growth = 109

Looking up CCOC(=O)c1c(C)[nH]c(C)c1C=O , I found its growth recorded as 92.9

Record summary for CC(=O)NNC(=S)N/C=C/c1c(C)ccc([N+](=O)[O-])c1[N+](=O)[O-] : reported growth = 107

Form field growth, entry ClCC(Cl)C1CCC(Cl)C(Cl)C1 (stereo not drawn) : 101

Form: molecule = CC(C)C(=O)OCCOc1ccc(C(C)(C)C)cc1 ; growth = 111

Entry C=CCN1CCCC1=O , growth reported as 128

The molecule listed as O=C(NCc1ccccc1)c1cccc([N+](=O)[O-])c1 has a reported growth of 108

Reported growth ( CC(C)N(CCCC#N)C(C)C ) = 106

Entry CCOC(=O)CNC — recorded growth = 96

// field: growth; key: Cc1cc2c(C(C)C)c(O)c(O)c(C=Nc3ccccc3[N+](=O)[O-])c2c(O)c1-c1c(C)cc2c(C(C)C)c(O)c(O)c(C=Nc3ccccc3[N+](=O)[O-])c2c1O ; value = 79.5

Record summary for C=CCC(OC(C)=O)c1ccc(C(C)C)cc1 (stereo not drawn) : reported growth = 103

Query CCCCNC(=O)c1ccc(OCC)cc1 yields growth of 104
